// provenance: patent US8193234B2

Answer each item with its documented Total Urinary Excretion % of dose.
Experiment: PO Dosing in Rats: urinary excretion profile
Format: in vivo, Male Sprague-Dawley Rats
Details: analyte = dosed compound itself in urine, PO 3 mg/kg, male rats

// lookup Total Urinary Excretion % of dose for "C[C@H](NC(=O)CSc1ncc(Br)n1-c1ccc(C#N)c2ccccc12)C(=O)O" 8 % of dose

// lookup Total Urinary Excretion % of dose for "CC(C)[C@H](NC(=O)CSc1ncc(Br)n1-c1ccc(C#N)c2ccccc12)C(=O)O" 1 % of dose

// lookup Total Urinary Excretion % of dose for "N#Cc1ccc(-n2c(Br)cnc2SCC(=O)NCC(=O)O)c2ccccc12" 7 % of dose

// lookup Total Urinary Excretion % of dose for "N#Cc1ccc(-n2c(Br)cnc2SCC(=O)NCCC(=O)O)c2ccccc12" 26 % of dose

// lookup Total Urinary Excretion % of dose for "N#Cc1ccc(-n2c(Br)cnc2SCC(=O)O)c2ccccc12" 4.2 % of dose

###

Assay: PO Dosing in Rats: plasma profile
Assay type: in vivo, Male Sprague-Dawley Rats
Details: Sprague-Dawley, rat; analyte = dosed compound itself in plasma, PO 3 mg/kg, male rats; read-out: t½ (converted)
ASSAY_READOUT: half-life (h)
Give just the numeric value; h need not be written.

// lookup half-life for "CC(C)[C@H](NC(=O)CSc1ncc(Br)n1-c1ccc(C#N)c2ccccc12)C(=O)O" 2.69

// lookup half-life for "N#Cc1ccc(-n2c(Br)cnc2SCC(=O)NCC(=O)O)c2ccccc12" 3.49

// lookup half-life for "C[C@H](NC(=O)CSc1ncc(Br)n1-c1ccc(C#N)c2ccccc12)C(=O)O" 2.99

###

Test: PO Dosing in Rats: urinary excretion profile
Format: in vivo, Male Sprague-Dawley Rats
Details: analyte = dosed compound itself in urine, PO 3 mg/kg, male rats
Answer each item with its documented Urinary Distribution (%) 12-24 h.
Give just the numeric value; % need not be written.

// lookup Urinary Distribution (%) 12-24 h for "N#Cc1ccc(-n2c(Br)cnc2SCC(=O)NCCC(=O)O)c2ccccc12" 7

// lookup Urinary Distribution (%) 12-24 h for "N#Cc1ccc(-n2c(Br)cnc2SCC(=O)NCC(=O)O)c2ccccc12" 7

// lookup Urinary Distribution (%) 12-24 h for "C[C@H](NC(=O)CSc1ncc(Br)n1-c1ccc(C#N)c2ccccc12)C(=O)O" 5

// lookup Urinary Distribution (%) 12-24 h for "CC(C)[C@H](NC(=O)CSc1ncc(Br)n1-c1ccc(C#N)c2ccccc12)C(=O)O" 9

###

Assay: PO Dosing in Rats: plasma profile
Type: in vivo, Male Sprague-Dawley Rats
Settings: male, Sprague-Dawley, rat, plasma, po, 3 mg/kg, analyte = dosed compound itself, PO 3 mg/kg, male rats; read-out: AUC t = 0_6
Answer each item with its documented AUC(0-t).
Give just the numeric value; ng·h/mL need not be written.

// lookup AUC(0-t) for C[C@H](NC(=O)CSc1ncc(Br)n1-c1ccc(C#N)c2ccccc12)C(=O)O [Example 8] 339

// lookup AUC(0-t) for N#Cc1ccc(-n2c(Br)cnc2SCC(=O)NCC(=O)O)c2ccccc12 [Example 3] 145

// lookup AUC(0-t) for CC(C)[C@H](NC(=O)CSc1ncc(Br)n1-c1ccc(C#N)c2ccccc12)C(=O)O [Example 9] 91.5

###

Answer each item with its documented AUC(0-t).
Experiment: PO Dosing in Rats: plasma profile
Assay type: in vivo, Male Sprague-Dawley Rats
Settings: male, Sprague-Dawley, rat, plasma, po, 3 mg/kg, analyte = dosed compound itself, PO 3 mg/kg, male rats; read-out: AUC t = 0_24
Give just the numeric value; ng·h/mL need not be written.

// lookup AUC(0-t) for "CC(C)[C@H](NC(=O)CSc1ncc(Br)n1-c1ccc(C#N)c2ccccc12)C(=O)O" 187

// lookup AUC(0-t) for "C[C@H](NC(=O)CSc1ncc(Br)n1-c1ccc(C#N)c2ccccc12)C(=O)O" 488

// lookup AUC(0-t) for "N#Cc1ccc(-n2c(Br)cnc2SCC(=O)NCC(=O)O)c2ccccc12" 251

###

Experiment: PO Dosing in Rats: plasma profile
Assay type: in vivo, Male Sprague-Dawley Rats
Details: male, Sprague-Dawley, rat, plasma, po, 3 mg/kg, analyte = dosed compound itself, PO 3 mg/kg, male rats; read-out: AUC t = 12_24
Experimental: Compounds prepared as described in examples 1, 3, 7, 8, and 9 are administered PO to Male Sprague-Dawley Rats (250 grams; 3 animals per test group). […] Plasma samples are removed at 0.25, 0.5, 1, 3, 6, 12 and 24 hr after initial dose and analyzed for presence of compound and possible metabolite. Urine samples are also collected and analyzed for parent compound and/or metabolite. […]
Answer each item with its documented AUC(0-t).
Give just the numeric value; ng·h/mL need not be written.

// lookup AUC(0-t) for "CC(C)[C@H](NC(=O)CSc1ncc(Br)n1-c1ccc(C#N)c2ccccc12)C(=O)O" 28.2

// lookup AUC(0-t) for "C[C@H](NC(=O)CSc1ncc(Br)n1-c1ccc(C#N)c2ccccc12)C(=O)O" 65.2

// lookup AUC(0-t) for "N#Cc1ccc(-n2c(Br)cnc2SCC(=O)NCC(=O)O)c2ccccc12" 25.6

###

Target: hURAT1 Transporter (Homo sapiens, UniProt Q96S37)
Construct: Full-length human URAT1 gene (SLC22A12) was subcloned from plasmid pCMV6-XL5 (Origene)
Sequence (Q96S37 1-553): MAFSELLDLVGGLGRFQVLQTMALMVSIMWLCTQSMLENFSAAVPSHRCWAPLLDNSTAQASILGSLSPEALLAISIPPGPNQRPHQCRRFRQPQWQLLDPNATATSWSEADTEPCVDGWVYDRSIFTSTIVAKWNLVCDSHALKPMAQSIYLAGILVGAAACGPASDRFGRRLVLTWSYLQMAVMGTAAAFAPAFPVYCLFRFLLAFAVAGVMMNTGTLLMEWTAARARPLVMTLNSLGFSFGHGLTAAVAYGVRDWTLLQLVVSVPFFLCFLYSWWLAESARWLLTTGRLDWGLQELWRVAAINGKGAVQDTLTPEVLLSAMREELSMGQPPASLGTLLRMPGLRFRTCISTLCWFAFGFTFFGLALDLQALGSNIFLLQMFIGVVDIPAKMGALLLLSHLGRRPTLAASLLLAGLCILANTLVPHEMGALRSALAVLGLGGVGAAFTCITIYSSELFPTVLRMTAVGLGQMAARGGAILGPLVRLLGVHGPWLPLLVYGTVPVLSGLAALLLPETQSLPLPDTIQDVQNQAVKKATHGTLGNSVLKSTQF
Test: Uric Acid Uptake Assay (14C-uric acid uptake in HEK293/urat1 cells)
Settings: 40 μM C14 uric acid, 10 minutes at room temperature
Protocol: Creation of Stable Cell Lines Expressing hURAT1 Transporter: Full-length human URAT1 gene (SLC22A12) was subcloned from plasmid pCMV6-XL5 (Origene) into eukaryotic expression plasmid pCMV6/Neo (Origene) using Not I restriction sites. Gene sequencing confirmed the sequence of hURAT1 as outlined in Genbank (Accession #NM_144585.2). […] Cells were grown overnight (20-26 hours) at 37° C. in an incubator. […] Plates are then read on the TopCount Plate Reader and an EC50 value generated. […]
pEC50: −log10 of the molar value.
Answer each item with its documented pEC50.

Requested read-out pEC50, target or system hURAT1 Transporter (Homo sapiens, UniProt Q96S37), entry "CCOC(=O)CNC(=O)CSc1ncc(Br)n1-c1ccc(C#N)c2ccccc12" 6.00 to 9.00

Requested read-out pEC50, target or system hURAT1 Transporter (Homo sapiens, UniProt Q96S37), entry "CCOC(=O)[C@H](C)NC(=O)CSc1ncc(Br)n1-c1ccc(C#N)c2ccccc12" 6.00 to 9.00

Requested read-out pEC50, target or system hURAT1 Transporter (Homo sapiens, UniProt Q96S37), entry "N#Cc1ccc(-n2c(Br)cnc2SC(F)(F)C(=O)O)c2ccccc12" 6.00 to 9.00

Requested read-out pEC50, target or system hURAT1 Transporter (Homo sapiens, UniProt Q96S37), entry "CC(C)[C@H](NC(=O)CSc1ncc(Br)n1-c1ccc(C#N)c2ccccc12)C(=O)O" 4.52 to 6.00

###

Biological target: hURAT1 Transporter (Homo sapiens, UniProt Q96S37)
Construct: Full-length human URAT1 gene (SLC22A12) was subcloned from plasmid pCMV6-XL5 (Origene)
Assay: Uric Acid Uptake Assay (14C-uric acid uptake in HEK293/urat1 cells)
Assay type: cell-based
Conditions: 40 μM C14 uric acid, 10 minutes at room temperature
pEC50: −log10 of the molar value.
Answer each item with its documented pEC50.

Requested read-out pEC50, target or system hURAT1 Transporter (Homo sapiens, UniProt Q96S37), entry "N#Cc1ccc(-n2c(Br)cnc2SCC(=O)NCC(=O)O)c2ccccc12" 4.52 to 6.00

Requested read-out pEC50, target or system hURAT1 Transporter (Homo sapiens, UniProt Q96S37), entry "CCOC(=O)[C@@H](NC(=O)CSc1ncc(Br)n1-c1ccc(C#N)c2ccccc12)C(C)C" 6.00 to 9.00

Requested read-out pEC50, target or system hURAT1 Transporter (Homo sapiens, UniProt Q96S37), entry "CCOC(=O)CCNC(=O)CSc1ncc(Br)n1-c1ccc(C#N)c2ccccc12" 6.00 to 9.00

Requested read-out pEC50, target or system hURAT1 Transporter (Homo sapiens, UniProt Q96S37), entry "C[C@H](NC(=O)CSc1ncc(Br)n1-c1ccc(C#N)c2ccccc12)C(=O)O" < 4.52

Requested read-out pEC50, target or system hURAT1 Transporter (Homo sapiens, UniProt Q96S37), entry "N#Cc1ccc(-n2c(Br)cnc2SCC(=O)NCCC(=O)O)c2ccccc12" 4.52 to 6.00

Requested read-out pEC50, target or system hURAT1 Transporter (Homo sapiens, UniProt Q96S37), entry "Cc1cnc(SCC(=O)O)n1-c1ccc(N(C)C)c2c1CCCC2" 4.52 to 6.00

Requested read-out pEC50, target or system hURAT1 Transporter (Homo sapiens, UniProt Q96S37), entry "N#Cc1ccc(-n2c(Br)cnc2SCC(=O)O)c2ccccc12" 6.00 to 9.00
